Tested on: Proteus mirabilis
Assay: Antibacterial activity against Proteus mirabilis at 100 ug/ml after 24 hrs agar diffusion method
Assay type: functional
Settings: read-out: DIZ
Threshold rule: zone of inhibition at 100 µg/mL greater than or equal to 20 mm is Fulfilled; below that, Not fulfilled.

# compound, label-class
rows = [
    ("CCOC(=O)[C@@H]1[C@@H]([C@H]2[C@@H](Oc3ccccc3)C(=O)N2c2ccc(OC)cc2)C2CCCN2C12C(=O)c1ccccc1C2=O (stereo partly drawn)", "Fulfilled"),
]

Is zone of inhibition at 100 µg/mL for CCOC(=O)[C@@H]1[C@@H]([C@H]2[C@@H](Oc3ccccc3)C(=O)N2c2ccc(OC)cc2)CN(C)[C@]12C(=O)Nc1ccccc12 at or above 20 mm?
Fulfilled

Threshold query (zone of inhibition at 100 µg/mL >= 20 mm) on CN(C)[C@@H]1C(O)=C(C(N)=O)C(=O)[C@@]2(O)C(O)=C3C(=O)c4c(O)cccc4[C@@](C)(O)[C@H]3C[C@@H]12 [TETRACYCLINE]
Fulfilled

# bool: zone of inhibition at 100 µg/mL of CCOC(=O)[C@@H]1[C@@H]([C@H]2[C@@H](c3ccccc3)C(=O)N2c2ccc(OC)cc2)C2CCCN2C12C(=O)c1ccccc1C2=O (stereo partly drawn) >= 20 mm
Fulfilled

Record CCOC(=O)[C@@H]1[C@@H]([C@H]2[C@@H](c3ccccc3)C(=O)N2c2ccc(OC)cc2)CN(C)[C@@]12C(=O)c1cccc3cccc2c13 ; criterion: zone of inhibition at 100 µg/mL no lower than 20 mm. Met?
Not fulfilled

Would you say CCOC(=O)[C@@H]1[C@@H]([C@H]2[C@@H](c3ccccc3)C(=O)N2c2ccc(OC)cc2)CN(C)C12C(=O)c1ccccc1C2=O shows zone of inhibition at 100 µg/mL at minimum 20 mm?
Not fulfilled

zone of inhibition at 100 µg/mL >= 20 mm for CCOC(=O)[C@@H]1[C@@H]([C@H]2[C@@H](c3ccccc3)C(=O)N2c2ccc(OC)cc2)CN(C)[C@]12C(=O)Nc1ccccc12 ?
Fulfilled

Assess whether reported zone of inhibition at 100 µg/mL for CCOC(=O)[C@@H]1[C@@H]([C@H]2[C@@H](c3ccccc3)C(=O)N2c2ccc(OC)cc2)C2CCCN2[C@]12C(=O)Nc1ccccc12 (stereo partly drawn) sits at 20 mm or higher.
Fulfilled

Kindly determine if zone of inhibition at 100 µg/mL recorded for CCOC(=O)[C@@H]1[C@@H]([C@H]2[C@@H](Oc3ccccc3)C(=O)N2c2ccc(OC)cc2)CN(C)C12C(=O)c1ccccc1C2=O is above or exactly 20 mm.
Not fulfilled

Record CCOC(=O)[C@@H]1[C@@H]([C@H]2[C@@H](c3ccccc3)C(=O)N2c2ccc(OC)cc2)C2CCCN2[C@@]12C(=O)c1cccc3cccc2c13 (stereo partly drawn) ; criterion: zone of inhibition at 100 µg/mL no lower than 20 mm. Met?
Not fulfilled

Quick check, zone of inhibition at 100 µg/mL >= 20 mm? CCOC(=O)[C@@H]1[C@@H]([C@H]2[C@@H](Oc3ccccc3)C(=O)N2c2ccc(OC)cc2)C2CCCN2[C@]12C(=O)Nc1ccccc12 (stereo partly drawn)
Fulfilled
